- system: Programmed cell death protein 1/Programmed cell death 1 ligand 1 (Homo sapiens, UniProt Q9NZQ7)
- Sequence (Q15116 whole entry): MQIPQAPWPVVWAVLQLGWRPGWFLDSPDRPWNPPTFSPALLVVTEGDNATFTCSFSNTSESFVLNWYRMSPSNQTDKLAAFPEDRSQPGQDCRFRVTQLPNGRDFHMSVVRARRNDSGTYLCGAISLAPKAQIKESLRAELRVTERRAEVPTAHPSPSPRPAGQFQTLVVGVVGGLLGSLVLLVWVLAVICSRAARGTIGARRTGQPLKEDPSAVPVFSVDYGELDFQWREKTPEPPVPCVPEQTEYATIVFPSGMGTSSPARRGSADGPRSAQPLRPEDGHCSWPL
- Sequence (Q9NZQ7 whole entry): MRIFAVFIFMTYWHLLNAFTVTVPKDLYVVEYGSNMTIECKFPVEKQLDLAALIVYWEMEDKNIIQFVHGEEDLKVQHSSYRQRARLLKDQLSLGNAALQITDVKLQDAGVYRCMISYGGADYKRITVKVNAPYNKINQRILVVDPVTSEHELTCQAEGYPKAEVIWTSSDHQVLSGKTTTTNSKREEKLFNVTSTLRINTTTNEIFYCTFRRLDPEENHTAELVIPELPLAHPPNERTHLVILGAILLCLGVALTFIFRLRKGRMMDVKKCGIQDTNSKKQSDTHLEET
- method: Inhibition of PD-1/PD-L1 (unknown origin) protein-protein interaction by HTRF assay
What pIC50 was measured for each of the following?
Numbers only, as −log10 of the molar value.

chem_smiles=COc1nc(OCc2cccc(-c3ccccc3)c2C)ccc1CNCCCCCCC(=O)NO measurement_kind=pIC50 reported=7.23
chem_smiles=COc1nc(-c2cccc(-c3ccccc3)c2C)ccc1CNc1ccc(CC(=O)NO)cc1 measurement_kind=pIC50 reported=7.19
chem_smiles=COc1nc(-c2cccc(-c3ccccc3)c2C)ccc1CNCCCC(=O)Nc1ccccc1N measurement_kind=pIC50 reported=7.08

// below: pIC50 requested for another molecule
Q) Sample COc1nc(-c2cccc(-c3ccccc3)c2C)ccc1CNCCCCCC(=O)Nc1ccccc1N — what was its pIC50?
A) 7.06

====

- system: Protein deacetylase HDAC6 (Homo sapiens) (UniProt Q9UBN7)
- Sequence (whole entry): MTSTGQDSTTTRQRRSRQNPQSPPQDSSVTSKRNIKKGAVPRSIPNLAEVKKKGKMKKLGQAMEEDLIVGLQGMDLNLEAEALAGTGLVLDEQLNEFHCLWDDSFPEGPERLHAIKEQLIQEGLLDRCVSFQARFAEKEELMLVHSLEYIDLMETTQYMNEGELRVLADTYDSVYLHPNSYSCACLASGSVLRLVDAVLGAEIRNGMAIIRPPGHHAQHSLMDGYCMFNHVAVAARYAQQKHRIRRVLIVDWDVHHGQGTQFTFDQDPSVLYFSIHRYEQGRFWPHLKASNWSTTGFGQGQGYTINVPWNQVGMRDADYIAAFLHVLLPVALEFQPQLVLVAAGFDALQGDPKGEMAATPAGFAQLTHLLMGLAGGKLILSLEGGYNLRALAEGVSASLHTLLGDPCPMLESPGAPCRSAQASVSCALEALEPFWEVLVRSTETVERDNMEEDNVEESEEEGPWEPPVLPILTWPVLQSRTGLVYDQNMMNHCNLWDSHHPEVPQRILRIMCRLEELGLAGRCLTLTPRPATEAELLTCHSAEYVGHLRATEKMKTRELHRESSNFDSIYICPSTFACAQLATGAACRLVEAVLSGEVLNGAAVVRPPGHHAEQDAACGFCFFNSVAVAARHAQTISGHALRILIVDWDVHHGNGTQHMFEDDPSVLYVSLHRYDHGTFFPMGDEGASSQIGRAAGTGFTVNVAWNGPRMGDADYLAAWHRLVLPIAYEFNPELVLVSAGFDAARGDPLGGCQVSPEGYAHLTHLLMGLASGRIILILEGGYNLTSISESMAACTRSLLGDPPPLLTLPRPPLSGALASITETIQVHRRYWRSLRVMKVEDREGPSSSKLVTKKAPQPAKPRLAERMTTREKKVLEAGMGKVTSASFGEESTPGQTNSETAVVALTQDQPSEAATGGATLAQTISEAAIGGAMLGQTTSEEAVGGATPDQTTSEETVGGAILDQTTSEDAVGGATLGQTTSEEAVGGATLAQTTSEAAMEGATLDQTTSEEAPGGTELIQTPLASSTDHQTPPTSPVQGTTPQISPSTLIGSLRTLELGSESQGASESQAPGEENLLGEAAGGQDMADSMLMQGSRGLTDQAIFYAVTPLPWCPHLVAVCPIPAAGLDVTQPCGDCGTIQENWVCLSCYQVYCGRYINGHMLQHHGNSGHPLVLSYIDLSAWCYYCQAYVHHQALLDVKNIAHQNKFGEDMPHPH
- recorded conditions: Sf9, dose 100.0 nM, time 30.0 min
measurement kind: inhibition

Past entries and their recorded results:
molecule="COc1nc(-c2cccc(-c3ccccc3)c2C)ccc1CNC1CCC(C(=O)Nc2ccccc2N)CC1 (stereo not drawn)" reported="< 13.5%"
molecule=CCC[C@@H](NCc1ccc(OCc2cccc(-c3ccccc3)c2C)nc1OC)C(=O)Nc1ccccc1N reported="< 10%"

Q) Sample COc1nc(-c2cccc(-c3ccccc3)c2C)ccc1CNc1ccc(C(=O)Nc2ccccc2N)s1 — what was its inhibition?
A) < 10%
